# STUDY_TARGET: human 11b-hsd-1 (Homo sapiens, UniProt P28845)
# Sequence (P28845 whole entry): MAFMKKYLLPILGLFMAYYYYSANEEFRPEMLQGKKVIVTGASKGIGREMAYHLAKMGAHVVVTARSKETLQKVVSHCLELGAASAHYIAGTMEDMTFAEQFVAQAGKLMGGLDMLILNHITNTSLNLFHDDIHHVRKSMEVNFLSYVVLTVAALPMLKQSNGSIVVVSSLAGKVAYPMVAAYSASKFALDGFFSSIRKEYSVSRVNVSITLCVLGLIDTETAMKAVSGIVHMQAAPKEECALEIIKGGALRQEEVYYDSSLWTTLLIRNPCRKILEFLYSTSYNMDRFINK
# EXPERIMENT_DESCRIPTION: Inhibition constant Ki of human 11b-hsd-1 (3H-cortisone to 3H-cortisol conversion, HPLC)
# Format: biochemical
# TEST_SETTINGS: 0.1 μM compound
ENDPOINT_LABEL: inhibition at 0.1 µM (%)

CN(C(=O)[C@@H]1CSCN1Cc1ccc(Cl)cc1)C1CCCCC1 [Example 192] :: 100
CC(C)CN1CCC[C@@H]1C(=O)NCc1ccccn1 [Example 219] :: 86.6
CC(C)CN1CCOC[C@@H]1C(=O)NC1Cc2ccccc2C1 [Example 307] :: 100
Cc1cc(Cl)ccc1O[C@@H]1CN[C@H](C(=O)NC2C3CC4CC(C3)CC2C4)C1 (some centres unmarked) [Example 349] :: 100
Cc1ccc(CNC(=O)[C@H]2CCCN2CC(C)C)cc1 [Example 259] :: 100
COc1cccc(CNC(=O)[C@H]2CCCN2CC2CCCC2)c1 [Example 262] :: 76
N#Cc1ccc(CN2CCC[C@@H]2C(=O)NCc2ccccc2)cc1 [Example 323] :: 69.7
Cc1ccccc1CNC(=O)[C@H]1CCCN1CCc1ccccc1 [Example 270] :: 84.7
O=C(NCc1ccccc1F)[C@H]1CCCN1Cc1ccccc1 [Example 212] :: 77.6
O=C(N[C@@H]1CCCc2ccccc21)[C@H]1COCCN1Cc1ccccc1 [Example 313] :: 97
O=C(NCc1ccc(F)cc1)[C@H]1CCCN1Cc1ccc(Cl)cc1 [Example 235] :: 83.8
N#Cc1ccc(CN2CCOC[C@@H]2C(=O)N[C@@H]2CCCc3ccccc32)cc1 [Example 315] :: 96.1
CC(C)CN1CCC[C@@H]1C(=O)NCc1ccc(F)cc1 [Example 222] :: 100
C[C@@H](NC(=O)[C@H]1CCCN1Cc1ccccc1)c1ccc(Cl)cc1 [Example 296] :: 95.7

---

# STUDY_TARGET: human 11b-hsd-1 (Homo sapiens, UniProt P28845)
# EXPERIMENT_DESCRIPTION: Inhibition constant Ki of human 11b-hsd-1 (3H-cortisone to 3H-cortisol conversion, HPLC)
# Format: biochemical
# TEST_SETTINGS: apparent Ki, human 11b-hsd-1; read-out: Ki app
pKi: −log10 of the molar value.
ENDPOINT_LABEL: pKi

The cases that follow already have their pKi on record.
O=C(NC1CCCCC1)[C@H]1CCCN1C1CCC1 :: 7.85
O=C(NCc1ccccc1)[C@H]1CCCN1CC1CCCCC1 :: 7.82
CN1CCC[C@@H]1C(=O)NC12CC3CC(CC(C3)C1)C2 :: 7.63

A. O=C(NC1CCCCC1)[C@H]1CCCN1CC1CCCC1
B. CC(C)CN1CCOC[C@@H]1C(=O)NCc1ccccc1F
C. CCN1CCCC[C@@H]1C(=O)NC12CC3CC(CC(C3)C1)C2
D. CCCN1CCC[C@@H]1C(=O)NC1CCCCC1C (stereo partly shown)
# rank by pKi, ascending (min first) Reply: labels, ordered per the request. B, C, D, A

---

Listing of recorded pKi by entry.
# STUDY_TARGET: human 11b-hsd-1 (Homo sapiens)
# EXPERIMENT_DESCRIPTION: Inhibition constant Ki of human 11b-hsd-1 (3H-cortisone to 3H-cortisol conversion, HPLC)
# Format: biochemical
# TEST_SETTINGS: apparent Ki, human 11b-hsd-1; read-out: Ki app
pKi: −log10 of the molar value.

Suppose we examine the molecule CC(C)CN1CCC[C@@H]1C(=O)NC1CCCCC1 [Example 86] ; what pKi value has been reported? > 9.00

What would you report for O=C(NC1CCc2ccccc21)[C@H]1CCCN1CC1CCCC1 (stereo partly drawn) [Example 39] ? > 9.00

What would you report for O=C(NC1C2CC3CC(C2)CC1C3)[C@H]1CCCN1Cc1ccccn1 (stereo partly drawn) [Example 41] ? > 9.00

Origin of measurements: patent US20050261290A1
